# Tested on: Staphylococcus aureus
# procedure_details: Antibacterial activity against Staphylococcus aureus UAMS-1 after 20 hrs by microdilution method
# Assay type: functional
# assay_conditions: UAMS-1, 20 h
Assign MIC to each entry below.

These solved cases illustrate the format of a correct answer.
Give the reported MIC for CS(=O)(=O)O.CS(=O)(=O)O.Clc1cccc(Cl)c1C(c1c[nH]c2cc(C3=NCCN3)ccc12)c1c[nH]c2cc(C3=NCCN3)ccc12 (system: Staphylococcus aureus).
> 25 µM

Input CCCC(CCC)(c1c[nH]c2cc(C3=NCCN3)ccc12)c1c[nH]c2cc(C3=NCCN3)ccc12.CS(=O)(=O)O.CS(=O)(=O)O
12.5 to 25 µM

Attention now shifts to the item below.
Give the reported MIC for CS(=O)(=O)O.CS(=O)(=O)O.Cn1cc(C2(c3cn(C)c4cc(C5=NCCN5)ccc34)CCCCC2)c2ccc(C3=NCCN3)cc21 (system: Staphylococcus aureus).
≥ 25 µM

###

# procedure_details: Hemolytic activity against human RBC after 1 hr
# Format: ADME, cell-based, Erythrocyte
# assay_conditions: human red blood cells
reported_endpoint: HC50 at 1 h

These solved cases illustrate the format of a correct answer.
Request the reported HC50 at 1 h associated with CC(C)(c1c[nH]c2cc(C3=NCCN3)ccc12)c1c[nH]c2cc(C3=NCCN3)ccc12.CS(=O)(=O)O.CS(=O)(=O)O
> 830 µM

Input CS(=O)(=O)O.CS(=O)(=O)O.c1cc2c(C(c3c[nH]c4cc(C5=NCCN5)ccc34)C3CCCCC3)c[nH]c2cc1C1=NCCN1
20 to 40 µM

Input CS(=O)(=O)O.CS(=O)(=O)O.NCc1ccc2c(C3(c4c[nH]c5cc(CN)ccc45)CCCCC3)c[nH]c2c1
75 to 150 µM

Input CS(=O)(=O)O.CS(=O)(=O)O.c1cc2c(C3(c4c[nH]c5cc(C6=NCCN6)ccc45)CCCCC3)c[nH]c2cc1C1=NCCN1
150 to 300 µM

Attention now shifts to the item below.
Request the reported HC50 at 1 h associated with Cl.Clc1cccc(Cl)c1C(c1c[nH]c2ccc(C3=NCCN3)cc12)c1c[nH]c2ccc(C3=NCCN3)cc12
> 600 µM
